B1: Azoarcus group I ribozyme (parent)
chain: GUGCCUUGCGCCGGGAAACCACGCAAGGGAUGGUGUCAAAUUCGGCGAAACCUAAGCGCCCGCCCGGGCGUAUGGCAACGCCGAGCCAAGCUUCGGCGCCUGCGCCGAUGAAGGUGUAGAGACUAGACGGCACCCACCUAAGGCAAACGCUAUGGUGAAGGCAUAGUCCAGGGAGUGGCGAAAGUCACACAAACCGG

Variants of: B1
measurement.protocol: reverse-splicing fitness (ratio to wild type); higher = more active; in vitro selection; Mg2+ level not given
Give TRUE when the value for reverse-splicing fitness is at least 0.009. Give FALSE when it is less.

mutation.key	class.name
C82A A111C A120C C150U C169A U176C	TRUE
A111G A120G A145G C150U C169G U176C	TRUE
A111U A120C A145U C150A C169G	FALSE
C82U A111C A120C C169G	FALSE
A120C A145G C150A U176A	TRUE
C82U A145G C150A C169U	TRUE
C82G A111G A145G C150U U176A	TRUE
C82U A111G A120C A145U C150A C169U U176C	TRUE
C82G A111G C169A U176A	TRUE
A120G A145G C169A U176C	TRUE
C82U A111C A145C C150U C169G	FALSE
C82A A120U A145G C150A C169U U176A	FALSE
C82A A120U A145G C169A	FALSE
A111C A120C A145G U176C	TRUE
A111C A120U C169A U176G	FALSE
C82U A120C A145G C150A C169U	TRUE
C82U A145U C150A C169U	FALSE
C82U A111G A120C A145G C150G C169U U176A	FALSE
C82G A111C A120U A145G C169A U176G	FALSE
C82U A111C A120U A145G C150G U176G	FALSE
C82G A111C A120G A145G U176A	TRUE
A111C A120G A145U C150G C169A U176G	FALSE
C82U A111G A120U A145C C169U U176A	FALSE
C82A A111U A120G C150A C169A U176C	TRUE
C82U A111G A120U	TRUE
C82G A111U A120U A145C U176C	TRUE
A111C A120G C150U C169A U176A	TRUE
C82A A111U A145U C150G C169G U176A	FALSE
C82U A111G A120G A145G C169G U176G	FALSE
C82G A145G C150U U176C	TRUE
C82U A111U A120U A145U C150G U176G	FALSE
C82G A111U A120G A145C C169U U176G	FALSE
C82G A111G A120C A145U C150A U176C	TRUE
C82U A111U A120C A145C C150A C169G	FALSE
C82U A111G A120U A145G C150A C169A U176A	FALSE
A120G C150G C169G U176G	FALSE
C82G A120G C150G U176A	FALSE
C82G A145U C150A C169G U176A	TRUE
C82U A111C A120U C150G C169G U176C	FALSE
C82U A111U A145G C150G	TRUE
C82A C150U C169A	TRUE
C82G A111G A120C C150A C169A U176G	FALSE
C82A A111G A120U A145U C150U U176C	TRUE
C82G A111U C150U U176A	TRUE
C82G A145U C150A C169G	FALSE
C82A A145U C150A U176G	TRUE
A111U A120U A145G C150A U176G	FALSE
C82G A111G A120U A145G C150U C169U U176C	FALSE
C82G A111U A145C C150A C169G U176C	TRUE
A111U A120G A145U C150G C169G U176A	FALSE
C82A A111U A120G A145U C169U U176A	TRUE

Every entry's value here was drawn from the RNAGym collection of RNA variant scans (doi:10.1093/molbev/msab373).
